// data source = patent US7402601B2

# experimental details: in vivo
# particulars: SD, rat, ip
measured property: LD50 at 3 weeks (mg/kg)
Please give a number only; it is taken to be in mg/kg.

Query string: Give reported LD50 at 3 weeks value for Cc1oncc1C(=O)Nc1ccc(C(F)(F)F)cc1
Result string: 170
